The values you see were collected from patent US11136337B2.

Molecular target: human GOAT (Homo sapiens (Human), UniProt Q96T53)
Sequence (Q96T53 whole entry): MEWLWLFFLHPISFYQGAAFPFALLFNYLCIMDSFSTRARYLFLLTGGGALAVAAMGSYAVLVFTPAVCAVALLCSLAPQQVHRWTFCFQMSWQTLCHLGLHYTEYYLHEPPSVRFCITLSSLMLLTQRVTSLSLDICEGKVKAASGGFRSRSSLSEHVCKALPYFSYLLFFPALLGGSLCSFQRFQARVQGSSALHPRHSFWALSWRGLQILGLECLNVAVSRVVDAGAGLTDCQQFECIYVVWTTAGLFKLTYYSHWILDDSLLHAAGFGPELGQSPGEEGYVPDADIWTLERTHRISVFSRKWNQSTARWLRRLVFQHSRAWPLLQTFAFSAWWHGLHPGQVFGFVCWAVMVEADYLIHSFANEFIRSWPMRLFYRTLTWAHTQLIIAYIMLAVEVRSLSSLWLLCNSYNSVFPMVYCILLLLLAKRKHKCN
Assay: Determination of hGOAT activity in HEK293 cells after incubation with test compound (acyl-ghrelin ELISA)
Conditions: HEK293 cells stably expressing human GOAT and preproghrelin; 5 h incubation with octanoate-BSA; acyl-ghrelin in medium by ELISA
observable: pIC50
Answers are plain numbers, as −log10 of the molar value.

I need pIC50 for every entry listed below, if you could help.
1. Cc1nc2nonc2c(N)c1Cn1cc(-c2ccc(C#N)cc2)cn1 [Example 1.2]
2. Cc1nc2nonc2c(N)c1Cn1cc(-c2ccc(F)nc2)c(C(F)(F)F)n1 [Example 3.2]
3. Cc1nc2nonc2c(N)c1Cn1cc(Br)c(C(F)(F)F)n1 [Example 1.7]
4. Cc1nc2nonc2c(N)c1Cn1cc(-c2ccnn2C)c(C(F)(F)F)n1 [Example 3.3]

**Result**
[8.80, 8.92, 9.22, 8.59]
